target: Autotaxin (Homo sapiens, UniProt Q13822)
property.measured: IC50 (nM)
Give bare numbers, in nM.

System Autotaxin (Homo sapiens, UniProt Q13822). Read-out IC50. Item "CCCC[C@@H](CCCC(=O)NO)NC(=O)CCCCC(=O)Nc1ccccc1" . Report value.
60

====

target: Autotaxin (Homo sapiens, UniProt Q13822); experiment: Inhibition of human ATX pre-incubated for 45 mins before fluorogenic substrate-3 addition and measured every minute for 30 mins by fluorescence based assay
# Fulfilled = IC50 below 200 nM (exclusive); Not fulfilled = IC50 at/above 200 nM

[[record]]
compound_structure = "CCn1cc(C(=O)N/N=C/c2ccc(Cl)cc2)c2cc(-c3nc(CN4CCC(O)CC4)cs3)ccc21"
answer_label = "Fulfilled"

[[record]]
compound_structure = "CCn1cc(NC(=O)O[C@H](C)c2ccccc2Cl)c2cc(-c3nc(CN4CCC(O)CC4)cs3)ccc21"
answer_label = "Not fulfilled"

[[record]]
compound_structure = "CCn1cc(C(=O)N/N=C/c2ccc3c(c2)OCO3)c2cc(-c3nc(CN4CCN(C)CC4)cs3)ccc21"
answer_label = "Not fulfilled"

[[record]]
compound_structure = "Cn1cc(C(=O)N/N=C/c2ccc3c(c2)OCO3)c2cc(-c3nc(CN4CCOCC4)cs3)ccc21"
answer_label = "Not fulfilled"

[[record]]
compound_structure = "CCn1cc(C(=O)N/N=C/c2ccc(OC)cc2)c2cc(-c3nc(CN4CCCCC4)cs3)ccc21"
answer_label = "Not fulfilled"

[[record]]
compound_structure = "CCn1cc(NC(=O)OCc2cccc(Cl)c2Cl)c2cc(-c3nc(CN4CCN(CCO)CC4)cs3)ccc21"
answer_label = "Fulfilled"

[[record]]
compound_structure = "CCn1cc(C(=O)N/N=C/c2ccc3c(c2)OCO3)c2cc(-c3nc(CN4CCC(O)CC4)cs3)ccc21"
answer_label = "Fulfilled"

[[record]]
compound_structure = "CCn1cc(NC(=O)OCc2cc(Cl)cc(Cl)c2)c2cc(-c3nc(CN4CCC(O)CC4)cs3)ccc21"
answer_label = "Not fulfilled"


Field: below-cutoff. Rule: recorded IC50 strictly less than 200 nM. Subject: "CCn1cc(C(=O)N/N=C/c2ccc3c(c2)OCO3)c2cc(-c3nc(CN4CCC(C)CC4)cs3)ccc21"
Not fulfilled

Field: below-cutoff. Rule: recorded IC50 strictly less than 200 nM. Subject: "CCn1cc(C(=O)N/N=C/c2ccc(Cl)cc2)c2cc(-c3nc(CN4CCCC4)cs3)ccc21"
Not fulfilled

Field: below-cutoff. Rule: recorded IC50 strictly less than 200 nM. Subject: "CCn1cc(C(=O)N/N=C(\C)c2ccc(F)cc2)c2cc(-c3nc(CN4CCC[C@H]4CO)cs3)ccc21"
Fulfilled

Field: below-cutoff. Rule: recorded IC50 strictly less than 200 nM. Subject: "CCn1cc(C(=O)N/N=C/c2ccc3c(c2)OCO3)c2cc(-c3nc(CN4CCC[C@H]4CO)cs3)ccc21"
Not fulfilled

Field: below-cutoff. Rule: recorded IC50 strictly less than 200 nM. Subject: "CCn1cc(NC(=O)OCc2ccc(F)c(F)c2)c2cc(-c3nc(CN4CCC[C@H]4CO)cs3)ccc21"
Not fulfilled

Field: below-cutoff. Rule: recorded IC50 strictly less than 200 nM. Subject: "CCn1cc(NC(=O)OCc2cccc(Cl)c2Cl)c2cc(-c3nc(CN4CCC(O)CC4)cs3)ccc21"
Fulfilled

Field: below-cutoff. Rule: recorded IC50 strictly less than 200 nM. Subject: "C/C(=N\NC(=O)c1cn(C)c2ccc(-c3nc(CN4CCN(C)CC4)cs3)cc12)c1ccc(F)cc1"
Not fulfilled

Field: below-cutoff. Rule: recorded IC50 strictly less than 200 nM. Subject: "CCN1CCN(Cc2csc(-c3ccc4c(c3)c(C(=O)N/N=C(\C)c3ccc(F)cc3)cn4CC)n2)CC1"
Not fulfilled

Field: below-cutoff. Rule: recorded IC50 strictly less than 200 nM. Subject: "CCn1cc(C(=O)N/N=C(\C)c2ccc(F)cc2)c2cc(-c3nc(CN4CCCC4)cs3)ccc21"
Not fulfilled

====

target: UniProt Q13822; assay: Inhibition of human ATX pre-incubated for 45 mins before fluorogenic substrate-3 addition and measured every minute for 30 mins by fluorescence based assay
pIC50: −log10 of the molar value.
Decision: pIC50 >= 7 yields t, all other cases yield f.

[[record]]
compound_structure = "CN(C)Cc1csc(-c2ccc3[nH]cc(C(=O)O)c3c2)n1"
answer_label = "f"

[[record]]
compound_structure = "CCn1cc(C(=O)N/N=C/c2ccc(Cl)cc2)c2cc(-c3nc(CN4CCN(CCO)CC4)cs3)ccc21"
answer_label = "f"

[[record]]
compound_structure = "CCn1cc(NC(=O)OCc2ccccc2)c2cc(-c3nc(CN4CCC(O)CC4)cs3)ccc21"
answer_label = "f"

[[record]]
compound_structure = "CCn1cc(C(=O)N/N=C/c2ccc(F)cc2)c2cc(-c3nc(CN4CCOCC4)cs3)ccc21"
answer_label = "f"


Now look at this one.
Has "CCn1cc(C(=O)N/N=C/c2ccc(F)cc2)c2cc(-c3nc(CN4CCC(O)CC4)cs3)ccc21" a recorded pIC50 greater than or equal to 7?
f

====

target: Autotaxin (Homo sapiens, UniProt Q13822); assay: Inhibition of human ATX pre-incubated for 45 mins before fluorogenic substrate-3 addition and measured every minute for 30 mins by fluorescence based assay
Please provide measured pIC50 for the entries that follow.
One number for each entry, as −log10 of the molar value.

[[record]]
compound_structure = "CCn1cc(C(=O)N/N=C(\\C)c2ccc(F)cc2)c2cc(-c3nc(CN4CCC(O)CC4)cs3)ccc21"
recorded_result = 7.16

[[record]]
compound_structure = "CCn1cc(C(=O)N/N=C/c2ccc(F)cc2)c2cc(-c3nc(CN4CCN(CCO)CC4)cs3)ccc21"
recorded_result = 6.87

[[record]]
compound_structure = "CN1CCN(Cc2csc(-c3ccc4c(c3)c(C(=O)N/N=C/c3ccc5c(c3)OCO5)cn4C)n2)CC1"
recorded_result = 6.06


Batch request: pIC50 for each of the following compounds.
1. CCn1cc(C(=O)N/N=C(\C)c2ccc(F)cc2)c2cc(-c3nc(CN4CCN(CCO)CC4)cs3)ccc21
2. CCn1cc(C(=O)N/N=C(\C)c2ccc(F)cc2)c2cc(-c3nc(CN4CCOCC4)cs3)ccc21
3. CCn1cc(NC(=O)OCc2ccc3c(c2)OCO3)c2cc(-c3nc(CN4CCC[C@H]4CO)cs3)ccc21
4. CCn1cc(C(=O)N/N=C/c2ccc3c(c2)OCO3)c2cc(-c3nc(CN4CCCCC4)cs3)ccc21
5. CN1CCN(Cc2csc(-c3ccc4c(c3)c(C(=O)N/N=C/c3ccc(F)cc3)cn4C)n2)CC1
6. CCn1cc(NC(=O)O[C@H](C)c2ccccc2Cl)c2cc(-c3nc(CN4CCC[C@H]4CO)cs3)ccc21
7. CCn1cc(NC(=O)OCc2ccccc2)c2cc(-c3nc(CN4CCC[C@H]4CO)cs3)ccc21

1. 6.29
2. 5.74
3. 7.46
4. 5.81
5. 5.28
6. 6.70
7. 6.91

Batch request: pIC50 for each of the following compounds.
1. CCn1cc(NC(=O)OCc2cc(Cl)cc(Cl)c2)c2cc(-c3nc(CN(CCO)CCO)cs3)ccc21
2. CCn1cc(NC(=O)OCc2ccc(F)c(F)c2)c2cc(-c3nc(CN4CCC(O)CC4)cs3)ccc21
3. CCn1cc(C(=O)N/N=C/c2ccc(F)cc2)c2cc(-c3nc(CN4CCC[C@H]4CO)cs3)ccc21

1. 7.67
2. 9.00
3. 6.18

====

Please provide measured IC50 for the entries that follow.
molecular target: Autotaxin (Homo sapiens, UniProt Q13822); test: Inhibition of human ATX pre-incubated for 45 mins before fluorogenic substrate-3 addition and measured every minute for 30 mins by fluorescence based assay
One number for each entry, in nM.

Below, each entry is followed by its recorded IC50 result.
[[record]]
compound_structure = "CCn1cc(C(=O)N/N=C(\\C)c2ccc(F)cc2)c2cc(-c3nc(CN4CCN(C)CC4)cs3)ccc21"
property_measured = "IC50"
recorded_result = 2530

[[record]]
compound_structure = "CCn1cc(NC(=O)O[C@H](C)c2ccc(C)cc2)c2cc(-c3nc(CN4CCC[C@H]4CO)cs3)ccc21"
property_measured = "IC50"
recorded_result = 36.9

[[record]]
compound_structure = "CCn1cc(NC(=O)OCc2cc(Cl)cc(Cl)c2)c2cc(-c3nc(CN4CCN(CCO)CC4)cs3)ccc21"
property_measured = "IC50"
recorded_result = 0.43

[[record]]
compound_structure = "CCn1cc(NC(=O)OCc2ccc3c(c2)OCO3)c2cc(-c3nc(CN4CCC(O)CC4)cs3)ccc21"
property_measured = "IC50"
recorded_result = 34.1

[[record]]
compound_structure = "Cn1cc(C(=O)N/N=C/c2ccc(F)cc2)c2cc(-c3nc(CN4CCOCC4)cs3)ccc21"
property_measured = "IC50"
recorded_result = 2870


Batch request: IC50 for each of the following molecules.
1. CCN1CCN(Cc2csc(-c3ccc4c(c3)c(C(=O)N/N=C/c3ccc(Cl)cc3)cn4CC)n2)CC1
2. CCn1cc(NC(=O)OCc2ccc3c(c2)OCO3)c2cc(-c3nc(CN(CCO)CCO)cs3)ccc21
3. CCn1cc(NC(=O)O[C@H](C)c2ccc(C)cc2)c2cc(-c3nc(CN4CCC(O)CC4)cs3)ccc21

1. 2310
2. 30.7
3. 117

Batch request: IC50 for each of the following molecules.
1. CCn1cc(C(=O)N/N=C/c2ccc(F)cc2)c2cc(-c3nc(CN4CCCCC4)cs3)ccc21
2. CCN1CCN(Cc2csc(-c3ccc4c(c3)c(C(=O)N/N=C/c3ccc(F)cc3)cn4CC)n2)CC1
3. CCn1cc(C(=O)N/N=C/c2ccc3c(c2)OCO3)c2cc(-c3nc(CN4CCN(CCO)CC4)cs3)ccc21

1: 3960; 2: 1350; 3: 1320
